Reference for the values: patent US9938562B2

# System: Listeria monocytogenes NCTC 11994
# protocol description: Agar plate multi-point inoculation, colour
# Assay type: cell-based
# condition parameters: Columbia agar, FAC 500 mg/L, substrate 300 mg/L, 37° C. 18 h in air
property measured: Colour

CCCCCCCC(=O)Oc1cc2ccccc2cc1OC(=O)CCCCCCC [Compound 16, DHN-dicaprylate]; −
OCC1OC(Oc2cc3cc(Br)c(Br)cc3cc2O)C(O)C(O)C1O [Compound 25, 6,7-Dibromo-DHN-β-D-galactopyranoside]; +/−
OCC1OC(Oc2cc3ccccc3cc2O)C(O)C(O)C1O [Compound 10, DHN-α-D-galactopyranoside]; −
OCC1OC(Oc2cc3ccccc3cc2O)C(O)C(O)C1O [Compound 8, DHN-β-D-galactopyranoside]; −

====

# System: Serratia marcescens NCTC 10211
# protocol description: Agar plate multi-point inoculation, colour
# Format: cell-based
# condition parameters: Columbia agar, FAC 500 mg/L, substrate 300 mg/L, 37° C. 18 h in air
property measured: Colour

OC[C@H]1O[C@@H](Oc2cc3ccccc3cc2O)C(O)C1O (stereo partly drawn) [Compound 2, DHN-β-D-ribofuranoside]; ++
OC[C@H]1O[C@@H](Oc2cc3cc(Br)c(Br)cc3cc2O)C(O)C1O (stereo partly drawn) [Compound 23, 6,7-Dibromo-DHN-β-D-ribofuranoside]; ++
OCC1OC(Oc2cc3ccccc3cc2O)C(O)C(O)C1O [Compound 10, DHN-α-D-galactopyranoside]; −
OCC1OC(Oc2cc3cc(Br)c(Br)cc3cc2O)C(O)C(O)C1O [Compound 25, 6,7-Dibromo-DHN-β-D-galactopyranoside]; +

====

# Test system: Pseudomonas aeruginosa NCTC 10662
# protocol description: Agar plate multi-point inoculation, colour
# Assay type: cell-based
# condition parameters: Columbia agar, FAC 500 mg/L, substrate 300 mg/L, 37° C. 18 h in air
property measured: Colour

Study these solved cases before continuing.
OCC1OC(Oc2cc3ccccc3cc2O)C(O)C(O)C1O [Compound 6, DHN-α-D-glucopyranoside]; −
OCC1OC(Oc2cc3cc(Br)c(Br)cc3cc2O)C(O)C(O)C1O [Compound 27, 6,7-Dibromo-DHN-β-D-glucopyranoside]; −
OCC1OC(Oc2cc3ccccc3cc2O)C(O)C(O)C1O [Compound 10, DHN-α-D-galactopyranoside]; −
CCCCCCCC(=O)Oc1cc2ccccc2cc1OC(=O)CCCCCCC [Compound 16, DHN-dicaprylate]; +
OCC1OC(Oc2cc3cc(Br)c(Br)cc3cc2O)C(O)C(O)C1O [Compound 25, 6,7-Dibromo-DHN-β-D-galactopyranoside]; −

I have 2 molecules here; please give me Colour for each one.
1. OCC1OC(Oc2cc3ccccc3cc2O)C(O)C(O)C1O [Compound 4, DHN-β-D-glucopyranoside]
2. OCC1OC(Oc2cc3ccccc3cc2O)C(O)C(O)C1O [Compound 8, DHN-β-D-galactopyranoside]

Completion:
−
−

I have 4 molecules here; please give me Colour for each one.
1. OC[C@H]1O[C@@H](Oc2cc3cc(Br)c(Br)cc3cc2O)C(O)C1O (stereo partly drawn) [Compound 23, 6,7-Dibromo-DHN-β-D-ribofuranoside]
2. CC(=O)NC1C(Oc2cc3ccccc3cc2O)OC(CO)C(O)C1O [Compound 15, DHN-N-acetyl-β-D-glucosaminide]
3. OC[C@H]1O[C@@H](Oc2cc3ccccc3cc2O)C(O)C1O (stereo partly drawn) [Compound 2, DHN-β-D-ribofuranoside]
4. O=C([O-])C1OC(Oc2cc3ccccc3cc2O)C(O)C(O)C1O.[Na+] [Compound 12b, DHN-β-D-glucuronide Sodium Salt]

Completion:
1. +
2. −
3. −
4. −
